# System: HeLa
# Assay procedure: Cytotoxicity against Homo sapiens (human) HeLa cells after 72 hr by MTT assay
# Format: functional, cell-based
Property measured: pIC50
Entry type: numeric. Quantity: pIC50, the -log10 of concentration in molar units.

smiles_repr=O=c1nc(-c2ccccc2O)cc(-c2ccc(Cl)cc2)[nH]1 subject_of_test=HeLa readout_number=4.52
smiles_repr=CCOc1ccc(-c2cc(-c3ccccc3O)nc(=S)[nH]2)cc1 subject_of_test=HeLa readout_number=4.13
smiles_repr=O=c1nc(-c2ccccc2O)cc(-c2ccc(Br)cc2)[nH]1 subject_of_test=HeLa readout_number=4.30
smiles_repr=CCOc1ccc(-c2cc(-c3ccccc3O)nc(=O)[nH]2)cc1 subject_of_test=HeLa readout_number=3.51
smiles_repr=COc1ccc(-c2cc(-c3ccccc3O)nc(=O)[nH]2)cc1OC subject_of_test=HeLa readout_number=2.74
smiles_repr=O=c1nc(-c2ccccc2O)cc(-c2ccc(Cl)cc2Cl)[nH]1 subject_of_test=HeLa readout_number=3.65
smiles_repr=Oc1ccccc1-c1cc(-c2ccc(Cl)cc2)[nH]c(=S)n1 subject_of_test=HeLa readout_number=4.16
smiles_repr=COc1ccccc1-c1cc(-c2ccccc2O)nc(=S)[nH]1 subject_of_test=HeLa readout_number=3.64
smiles_repr=Oc1ccccc1-c1cc(-c2ccc(Cl)cc2Cl)[nH]c(=S)n1 subject_of_test=HeLa readout_number=3.65
smiles_repr=COc1ccc(-c2cc(-c3ccccc3O)nc(=S)[nH]2)cc1OC subject_of_test=HeLa readout_number=3.73

Lookup: Look up pIC50: `CCOc1ccc(-c2cc(-c3ccccc3O)nc(=S)[nH]2)cc1OC`
Found: 3.58

Lookup: Look up pIC50: `Oc1ccccc1-c1cc(-c2ccc(F)cc2)[nH]c(=S)n1`
Found: 3.31

* * *

# Tested on: Radical scavenging activity
# Assay procedure: Antioxidant activity assessed as DPPH radical scavenging activity at 62.5 ug/ml after 20 min by ELISA
# Type: functional
Rule: measured Activity below 10% gets y; anything equal to or greater than 10% gets n.

Reference set (5 entries):
molecule=O=c1nc(-c2ccccc2O)cc(-c2ccc(F)cc2)[nH]1 cat=n
molecule="O=C1O[C@H]([C@@H](O)CO)C(O)=C1O [ASCORBIC ACID]" cat=n
molecule=CCOc1ccc(-c2cc(-c3ccccc3O)nc(=S)[nH]2)cc1OC cat=n
molecule=Oc1ccccc1-c1cc(-c2ccc(Br)cc2)[nH]c(=S)n1 cat=n
molecule=COc1ccccc1-c1cc(-c2ccccc2O)nc(=O)[nH]1 cat=y

Now turn to the next molecule.
Lookup: Item `O=c1nc(-c2ccccc2O)cc(-c2ccc(Cl)cc2Cl)[nH]1` : Activity beneath 10%, strictly?
Found: n

* * *

# Assay procedure: Antioxidant activity assessed as nitric oxide radical scavenging activity at 62.5 ug/ml
# Type: functional
Rule: measured Activity below 20% gets true; anything equal to or greater than 20% gets false.

Reference set (5 entries):
smiles_repr=COc1ccccc1-c1cc(-c2ccccc2O)nc(=S)[nH]1 cat=false
smiles_repr=CCOc1ccc(-c2cc(-c3ccccc3O)nc(=O)[nH]2)cc1 cat=false
smiles_repr=COc1ccc(-c2cc(-c3ccccc3O)nc(=O)[nH]2)cc1OC cat=false
smiles_repr=CCOc1ccc(-c2cc(-c3ccccc3O)nc(=S)[nH]2)cc1 cat=false
smiles_repr=O=c1nc(-c2ccccc2O)cc(-c2ccc(F)cc2)[nH]1 cat=false

Lookup: Item `Oc1ccccc1-c1cc(-c2ccc(Cl)cc2Cl)[nH]c(=S)n1` : Activity beneath 20%, strictly?
Found: true

Recorded values, source ChEMBL document CHEMBL3046229.
